These measurements were taken from ChEMBL document CHEMBL3393015.

Test system: MDA-MB-468
Assay: Induction of apoptosis in human MDA-MB-468 cells assessed as caspase 3 activity at 10 uM for 16 hrs
Assay type: functional, cell-based
Activity calls are given as the source filed them. The calls are words filed in the database; no cut-off is given here.
Possible outcomes: active, inactive

| Smiles Str | Group |
| --- | --- |
| O=C(c1ccc(-c2cn(Cc3ccccc3)nn2)cc1O)c1[nH]c(Cl)c(Cl)c1-n1c(C(=O)c2ccc(-c3cn(Cc4ccccc4)nn3)cc2O)cc(Cl)c1Cl | inactive |
| O=C(c1ccccc1O)c1[nH]c(Cl)c(Cl)c1-n1c(C(=O)c2cc(F)ccc2O)cc(Cl)c1Cl | active |
| CCOC(=O)Cn1cc(-c2ccc(C(=O)c3[nH]c(Cl)c(Cl)c3-n3c(C(=O)c4ccc(-c5cn(CC(=O)OCC)nn5)cc4O)cc(Cl)c3Cl)c(O)c2)nn1 | inactive |
| COc1ccccc1C(=O)c1[nH]c(Cl)c(Cl)c1-n1c(C(=O)c2ccc(Cl)cc2OC)cc(Cl)c1Cl | inactive |
| O=C(c1ccccc1O)c1[nH]c(Cl)c(Cl)c1-n1c(C(=O)c2c(O)cccc2F)cc(Cl)c1Cl | inactive |
| O=C(c1cc(Cl)c(O)cc1O)c1[nH]c(Cl)c(Cl)c1-n1c(C(=O)c2cc(Cl)c(O)cc2O)cc(Cl)c1Cl | inactive |
| O=C(c1ccc(P(=O)(O)O)cc1O)c1[nH]c(Cl)c(Cl)c1-n1c(C(=O)c2ccc(P(=O)(O)O)cc2O)cc(Cl)c1Cl | inactive |
